Data provenance: patent US20210220370A1

- Target: HDAC5 (Homo sapiens, UniProt Q9UQL6)
- Sequence (Q9UQL6 whole entry): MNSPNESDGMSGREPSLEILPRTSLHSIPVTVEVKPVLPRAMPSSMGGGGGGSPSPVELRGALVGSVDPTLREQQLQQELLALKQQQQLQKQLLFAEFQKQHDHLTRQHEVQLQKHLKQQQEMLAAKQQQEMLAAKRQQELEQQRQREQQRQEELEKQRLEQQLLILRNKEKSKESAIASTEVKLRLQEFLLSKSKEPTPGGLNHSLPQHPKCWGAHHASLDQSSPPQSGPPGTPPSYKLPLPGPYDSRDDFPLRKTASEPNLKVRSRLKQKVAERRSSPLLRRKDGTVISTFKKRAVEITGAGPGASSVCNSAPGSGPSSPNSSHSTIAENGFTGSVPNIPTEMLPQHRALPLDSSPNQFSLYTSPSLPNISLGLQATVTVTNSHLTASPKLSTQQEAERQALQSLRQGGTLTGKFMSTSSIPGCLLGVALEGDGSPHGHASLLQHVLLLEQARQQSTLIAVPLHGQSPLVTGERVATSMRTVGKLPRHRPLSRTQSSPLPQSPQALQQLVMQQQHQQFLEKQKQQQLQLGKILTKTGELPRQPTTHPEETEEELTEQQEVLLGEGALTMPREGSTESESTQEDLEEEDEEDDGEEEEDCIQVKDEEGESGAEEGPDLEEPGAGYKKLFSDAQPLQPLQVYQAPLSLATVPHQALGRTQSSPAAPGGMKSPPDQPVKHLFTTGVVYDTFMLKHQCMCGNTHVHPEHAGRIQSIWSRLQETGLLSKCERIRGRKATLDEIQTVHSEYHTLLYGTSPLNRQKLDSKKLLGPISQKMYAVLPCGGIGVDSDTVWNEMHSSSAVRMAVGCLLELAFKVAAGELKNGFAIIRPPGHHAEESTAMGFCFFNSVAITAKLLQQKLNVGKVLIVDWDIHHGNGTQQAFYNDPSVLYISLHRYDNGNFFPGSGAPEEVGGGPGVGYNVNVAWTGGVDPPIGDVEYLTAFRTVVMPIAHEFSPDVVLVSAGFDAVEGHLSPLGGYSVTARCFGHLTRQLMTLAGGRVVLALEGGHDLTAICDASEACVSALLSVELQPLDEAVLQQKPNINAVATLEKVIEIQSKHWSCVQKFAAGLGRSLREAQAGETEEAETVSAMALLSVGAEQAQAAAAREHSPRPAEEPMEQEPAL
- Assay explanation: HDAC5 colorimetric assay, substrate Boc-Lys(TFA)-AMC
pIC50: −log10 of the molar value.
Tag: t if measured pIC50 is not below 7, f if it is.

[
  {
    "Molecule": "N=C1Sc2ccc(F)cc2C2=NCCCN12 [Compound 13l]",
    "Label class": "t"
  },
  {
    "Molecule": "CN(C)c1ccc2c(c1)SC(=N)N1CCCN=C21 [Compound 13d]",
    "Label class": "f"
  },
  {
    "Molecule": "N=C1Sc2cc(F)ccc2C2=NCCCN12 [Compound 13f]",
    "Label class": "f"
  },
  {
    "Molecule": "N=C1Sc2c(F)cccc2C2=NCCN12 [Compound 13i]",
    "Label class": "f"
  },
  {
    "Molecule": "N=C1Sc2c(F)cccc2C2=NCCCN12 [Compound 13h]",
    "Label class": "f"
  },
  {
    "Molecule": "N=C1Sc2cccc(Br)c2C2=NCCCN12 [Compound 13j]",
    "Label class": "t"
  },
  {
    "Molecule": "N=C1Sc2ccc(Cl)cc2C2=NCCN12 [Compound 13c]",
    "Label class": "f"
  },
  {
    "Molecule": "N=C1Sc2ccc(Cl)cc2C2=NCCCN12 [Compound 13e]",
    "Label class": "f"
  },
  {
    "Molecule": "N=C1Sc2ccccc2C2=NCCN12 [Compound 13b]",
    "Label class": "f"
  },
  {
    "Molecule": "Cc1cccc2c1C1=NCCCN1C(=N)S2 [Compound 13m]",
    "Label class": "t"
  },
  {
    "Molecule": "Cc1ccc2c(c1)SC(=N)N1CCCN=C21 [Compound 13k]",
    "Label class": "f"
  }
]
